test system: U2932 TK216-resistant clone 3; test: cell proliferation relative to vehicle (% of vehicle); higher = less growth inhibition; conditions: 50 nM; 72 h
The reader will find reported cell proliferation values listed item by item below.
Kindly provide the number alone.

A selection of reference data follows.
# compound, cell proliferation
records = [
    ("O=C1CCC(N2C(=O)c3ccccc3C2=O)C(=O)N1 (centres undefined) [Thalidomide]", 104),
    ("NC(=O)c1ncn([C@@H]2O[C@H](CO)[C@@H](O)[C@H]2O)c1O [Mizoribine]", 100),
]

GET /value?item= CN(Cc1cnc2nc(N)nc(N)c2n1)c1ccc(C(=O)N[C@@H](CCC(=O)O)C(=O)O)cc1 [Methotrexate] &field=cell proliferation returns 102

// field: cell proliferation; key: COCC[n+]1c2c(n(Cc3cnccn3)c1C)C(=O)c1ccccc1C2=O [YM155 (Sepantronium Bromide)] ; value = -1.12

====

system: U2932 parental; assay: cell proliferation relative to vehicle (% of vehicle); higher = less growth inhibition; details: 50 nM; 72 h
quantityName: cell proliferation
Keep the answer to the number alone.

# molecule, cell proliferation
rows = [
    ("CCCCCCNC(=O)n1cc(F)c(=O)[nH]c1=O", 102),
    ("Cc1nc(Nc2ncc(C(=O)Nc3c(C)cccc3Cl)s2)cc(N2CCN(CCO)CC2)n1", 75),
    ("COC(=O)Nc1ccc(-c2nc(N3CCOCC3)c3cnn(C4CCN(C(=O)OC)CC4)c3n2)cc1", 101),
]

For the molecule Clc1ccc(Nc2nnc(Cc3ccncc3)c3ccccc23)cc1 [Vatalanib (PTK787) 2HCl] , the measured cell proliferation on U2932 parental was 93.1

Considering c1cc(-c2cnn3cc(-c4ccc(OCCN5CCCCC5)cc4)cnc23)ccn1 [Dorsomorphin 2HCl] , its cell proliferation with U2932 parental was recorded as 110

====

system: U2932 parental; assay: cell proliferation relative to vehicle (% of vehicle); higher = less growth inhibition; settings: 500 nM; 72 h
quantityName: cell proliferation
Respond with the number and no other words.

Please fill in: cell proliferation reported for "CO[C@@H](C(=O)N1Cc2[nH]nc(NC(=O)c3ccc(N4CCN(C)CC4)cc3)c2C1)c1ccccc1" = 69.5

====

system: U2932 TK216-resistant clone 2; experiment: cell proliferation relative to vehicle (% of vehicle); higher = less growth inhibition; conditions: 500 nM; 72 h
Label false if cell proliferation falls below 100; label true in every other case.

Solved entries (count: 4):
# smilesStr, className
rows = [
    ("COc1cc2c(NC3CCN(CC4CCCCC4)CC3)nc(N3CCCN(C(C)C)CC3)nc2cc1OCCCN1CCCCC1", "true"),
    ("CCCCOc1c(C(=O)c2c(F)cc(C)cc2F)c[nH]c2nncc1-2", "false"),
    ("CC(C)(C(=O)NCC(F)(F)C(F)(F)F)C(=O)N[C@@H]1C(=O)Nc2ccccc2-c2ccccc21", "true"),
    ("O=C(O)c1ccc(O)c2ncccc12", "true"),
]

Quick check, cell proliferation >= 100? "CN[C@@H](C)C(=O)N[C@H](C(=O)N1CCC[C@H]1C(=O)Nc1snnc1-c1ccccc1)C1CCCCC1"
true

====

test system: U2932 parental; test: cell proliferation relative to vehicle (% of vehicle); higher = less growth inhibition; settings: 50 nM; 72 h
Label t when cell proliferation is at or above 60; otherwise label f.

Example entries begin here.
# molecule, className
data = [
    ("O=C1CCC(N2C(=O)c3ccccc3C2=O)C(=O)N1 (centres undefined) [Thalidomide]", "t"),
    ("Cn1cnc2c(F)c(Nc3ccc(Br)cc3Cl)c(C(=O)NOCCO)cc21 [Selumetinib (AZD6244)]", "t"),
    ("COc1ccc(-c2ccc3c(N4CCOC[C@@H]4C)nc(N4CCOC[C@@H]4C)nc3n2)cc1CO", "t"),
    ("CN(C)Cc1c(C(=O)NCCOc2ccc(C(=O)NO)cc2)oc2ccccc12", "t"),
    ("Cn1cc(CNCC2CCN(c3ncc(C(=O)NO)cn3)CC2)c2ccccc21", "f"),
]

Kindly review the next molecule as well.
Is the recorded value of cell proliferation equal to or greater than 60 for this molecule? "C/C(=C\C(=O)Nc1ccccc1C(=O)O)c1ccc2ccccc2c1"
t
